molecular target: ELIC WT (Dickeya chrysanthemi, UniProt P0C7B7, INS163G); construct: expressed in transfected cells; host or cells: X. laevis oocytes (cRNA injection, pTLN vector); test: cell-based; assay type: cell-based, Erwinia chrysanthemi; conditions: Ki app, WT/1 mM Ca^2+; Schild analysis
Result type: pKi
In plain terms, pKi is the concentration in mol/L turned into minus its base-10 logarithm.

Answer with the recorded pKi of CC(=O)OCC[N+](C)(C)C only. 2.66

---

biological target: ELIC R91A (Dickeya chrysanthemi, UniProt P0C7B7, INS163G/R91A); construct: expressed in transfected cells; host or cells: X. laevis oocytes; assay: Two-electrode voltage clamp, ELIC R91A in oocytes; format: cell-based, Erwinia chrysanthemi
Result type: Ki
Write the figure, then the unit, nothing else.

Answer with the recorded Ki of CC(=O)OCC[N+](C)(C)C only. 170 µM

---

Target: ELIC D113A/D158A (Dickeya chrysanthemi, UniProt P0C7B7, D113A/D158A/INS163G)
Construct: expressed in transfected cells; host or cells: X. laevis oocytes
Test: cell-based
Type: cell-based, Erwinia chrysanthemi
Protocol: Constructs containing the gene of either the WT or mutant channels preceded by the signal sequence of the chicken α7nAchR were cloned into the pTLN vector for expression in X. laevis oocytes. […] Currents were recorded in bath solutions containing 10 mM HEPES (pH 7), 130 mM NaCl, and the indicated concentrations of cysteamine and divalent cations. […]
Result type: pKi
In plain terms, pKi is the concentration in mol/L turned into minus its base-10 logarithm.

Answer with the recorded pKi of CC(=O)OCC[N+](C)(C)C [ACh, acetylcholine] only. 2.68
